Each record here notes measured OD Value of rH-GPA33 Binding ELISA.
Target: T1, human recombinant A33 antigen (human, UniProt Q99795 22-235)
T1 construct: also called rH-GPA33; rHGPA33
T1 sequence: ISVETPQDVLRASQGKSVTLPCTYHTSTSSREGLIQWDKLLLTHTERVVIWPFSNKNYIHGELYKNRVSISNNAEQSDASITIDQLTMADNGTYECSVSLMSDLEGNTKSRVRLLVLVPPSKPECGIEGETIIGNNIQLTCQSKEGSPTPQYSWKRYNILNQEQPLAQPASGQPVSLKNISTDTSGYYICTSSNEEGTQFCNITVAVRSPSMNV
Test: rH-GPA33 binding ELISA, 2ug/mL of 31.1, supernatant
Write the value in OD as a bare number.

Please fill in: OD Value of rH-GPA33 Binding ELISA reported for humanized 31.1 antibody #3 (cdr-HC + sdr-LC) (antibody, human IgG1, kappa, V domains shown, Full heavy and light chains; transient Expi293 expression, tested as culture supernatant; also called Sample ID 3; cdr31.1-HC + sdr31.1-LC) VH: QIQLVQSGAEVKKPGASVKVSCKASGYTFTNYGMNWVKQAPGKGLKWMGWINTYTGEPTYADDFKGRFAFTLDTSISTAYMELSRLRSDDTAVYFCARAYYGKYFDYWGQGTTVTVSS VL: SIQMTQSPSSLSASVGDRVTITCRASQSISNDLAWYQQKPGQSPKLLIYYASNRYTGVPDRFSGSGYGTDFTLTISSLQPEDFAVYFCQQDYSSPLTFGAGTKLEIKR = 0.29

Short answer for humanized 31.1 antibody #4 (cdr-HC + ven-LC) (antibody, human IgG1, kappa, V domains shown, Full heavy and light chains; transient Expi293 expression, tested as culture supernatant; also called Sample ID 4; cdr31.1-HC + ven31.1-LC) VH: QIQLVQSGAEVKKPGASVKVSCKASGYTFTNYGMNWVKQAPGKGLKWMGWINTYTGEPTYADDFKGRFAFTLDTSISTAYMELSRLRSDDTAVYFCARAYYGKYFDYWGQGTTVTVSS VL: SIVMTQSPSSLSVSVGDRVTITCKASQSVSNDVAWYQQKPGQSPKLLIYYASNRYTGVPDRFSGSGYGTDFTFTISSVQPEDLAVYFCQQDYSSPLTFGAGTKLELKR : OD Value of rH-GPA33 Binding ELISA was 1.27

For reference, reported OD Value of rH-GPA33 Binding ELISA for humanized 31.1 antibody #16 (ven31.1-HC + ven31.1-LC) (antibody, human IgG1, kappa, V domains shown, Full heavy and light chains; supernatant in the first screen, Protein A/G purified in the third round; also called Sample ID 16; ven-HC + ven-LC) VH: QIQLVQSGPEVKKPGASVKISCKASGYTFTNYGMNWVKQAPGQGLKWMGWINTYTGEPTYADDFKGRFAFTLDTSISTAYLEISRLRSDDTAVYFCARAYYGKYFDYWGQGTTLTVSS VL: SIVMTQSPSSLSVSVGDRVTITCKASQSVSNDVAWYQQKPGQSPKLLIYYASNRYTGVPDRFSGSGYGTDFTFTISSVQPEDLAVYFCQQDYSSPLTFGAGTKLELKR stands at 1.74

Value of measured OD Value of rH-GPA33 Binding ELISA for the entry humanized 31.1 antibody #14 (ven-HC + abb-LC) (antibody, human IgG1, kappa, V domains shown, Full heavy and light chains; transient Expi293 expression, tested as culture supernatant; also called Sample ID 14; ven31.1-HC + abb31.1-LC) VH: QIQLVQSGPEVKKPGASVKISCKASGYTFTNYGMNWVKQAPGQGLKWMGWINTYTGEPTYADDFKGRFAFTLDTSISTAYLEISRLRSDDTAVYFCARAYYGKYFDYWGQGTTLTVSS VL: SIQMTQSPSSLSASVGDRVTITCRASQSVSNDVAWYQQKPGQSPKLLIYYASNRYSGVPDRFSGSGYGTDFTLTISSLQPEDFAVYFCQQDYSSPLTFGAGTKLEIKR : 1.44

Noted for humanized 31.1 antibody #12 (sdr-HC + ven-LC) (antibody, human IgG1, kappa, V domains shown, Full heavy and light chains; transient Expi293 expression, tested as culture supernatant; also called Sample ID 12; sdr31.1-HC + ven31.1-LC) VH: QIQLVQSGAEVKKPGASVKVSCKASGYTFTNYGMNWVRQAPGKGLEWMGWINPYTGEPTYAQKFQGRVTFTLDTSISTAYMELSRLRSDDTAVYFCARAYYGKYFDYWGQGTTVTVSS VL: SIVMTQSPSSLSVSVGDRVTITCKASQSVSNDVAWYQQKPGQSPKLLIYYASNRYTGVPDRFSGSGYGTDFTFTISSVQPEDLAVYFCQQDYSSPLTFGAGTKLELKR : its OD Value of rH-GPA33 Binding ELISA reads 0.06

The measured OD Value of rH-GPA33 Binding ELISA associated with humanized 31.1 antibody #8 (abb-HC + ven-LC) (antibody, human IgG1, kappa, V domains shown, Full heavy and light chains; transient Expi293 expression, tested as culture supernatant; also called Sample ID 8; abb31.1-HC + ven31.1-LC) VH: QIQLVQSGAEVKKPGASVKVSCKASGYTFTNYGMNWVRQAPGKGLEWMGWINTYTGEPTYAQKFQGRVTFTLDTSISTAYMELSRLRSDDTAVYFCARAYYGKYFDYWGQGTTVTVSS VL: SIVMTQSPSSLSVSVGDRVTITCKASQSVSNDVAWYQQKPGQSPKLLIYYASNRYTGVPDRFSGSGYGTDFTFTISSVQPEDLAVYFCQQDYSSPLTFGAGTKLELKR reads 1.2

The value of OD Value of rH-GPA33 Binding ELISA measured for the binder humanized 31.1 antibody #13 (ven-HC + cdr-LC) (antibody, human IgG1, kappa, V domains shown, Full heavy and light chains; transient Expi293 expression, tested as culture supernatant; also called Sample ID 13; ven31.1-HC + cdr31.1-LC) VH: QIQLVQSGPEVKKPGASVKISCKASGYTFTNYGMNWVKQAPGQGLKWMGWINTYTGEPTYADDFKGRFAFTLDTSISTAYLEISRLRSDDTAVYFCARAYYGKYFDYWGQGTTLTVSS VL: SIVMTQSPSSLSASVGDRVTITCKASQSVSNDVAWYQQKPGQSPKLLIYYASNRYTGVPDRFSGSGYGTDFTLTISSLQPEDFAVYFCQQDYSSPLTFGAGTKLEIKR turned out to be 1.27
